System: P388 leukemia ip, CD2F1 mice, survival T/C
PROCEDURE_TEXT: NCI In Vivo Anticancer Drug Screen. Data for tumor model P388 Leukemia (intraperitoneal) in CD2F1 (CDF1) mice
PARTICULARS: endpoint: median survival time; dose: 50.0 mg/kg/injection; schedule: Q04DX002 (ip); vehicle: saline with Tween-80; higher = longer survival
Inconclusive results and toxic doses are left out.
PARAMETER: T/C

Use these answered entries as a reference point.
ENTRY_SMILES: O=C1C(C(=Nc2ccc(Br)cc2)c2ccccc2)=C(O)c2ccccc21
T/C: 99 % of control

ENTRY_SMILES: C=Cn1c([N+](=O)[O-])cnc1/C=C/c1ccc(C(=O)OCCN2CCOCC2)cc1
T/C: 101 % of control

ENTRY_SMILES: CSC(=S)/N=c1/sccn1C
T/C: 100 % of control

Given the entry `Fc1ccccc1N/N=c1\nnc2ccccc2s1` , report its measured T/C. 97 % of control

Suppose we examine the compound `CC(=Nc1cc(Cl)ccc1O)C1=C(O)c2ccccc2C1=O` ; what T/C value has been reported? 94 % of control

---

Test system: P388 leukemia ip, CD2F1 mice, survival T/C
PROCEDURE_TEXT: NCI In Vivo Anticancer Drug Screen. Data for tumor model P388 Leukemia (intraperitoneal) in CD2F1 (CDF1) mice
PARTICULARS: endpoint: median survival time; dose: 400.0 mg/kg/injection; schedule: Q01DX009 (ip); vehicle: saline with Tween-80; higher = longer survival
Inconclusive results and toxic doses are left out.
PARAMETER: T/C

Worked examples follow.
COMPOUND: O=C(O)/C=C/C(=O)NCc1ccco1
ASSAY_RESULT: 100 % of control
--
COMPOUND: COc1cccc(/C=N/NC(=O)N/N=C/c2cccc(OC)c2O)c1O
ASSAY_RESULT: 95 % of control
--
COMPOUND: O=c1[nH]c(=O)n(C2CC(O)C(CO)O2)cc1I (centres undefined)
ASSAY_RESULT: 118 % of control
--
COMPOUND: Clc1ccc(Oc2ccc(N3C=Nc4ccc(Oc5ccc(Cl)cc5)cc4C3)cc2)cc1
ASSAY_RESULT: 115 % of control
--
COMPOUND: O=C(Nc1ccccc1)OCC1CC1
ASSAY_RESULT: 89 % of control

Would you mind telling me what T/C value was observed for `c1ccc2c(c1)Nc1ccncc1S2` ? 100 % of control

---

Tested on: P388 leukemia ip, CD2F1 mice, survival T/C
PROCEDURE_TEXT: NCI In Vivo Anticancer Drug Screen. Data for tumor model P388 Leukemia (intraperitoneal) in CD2F1 (CDF1) mice
PARTICULARS: endpoint: median survival time; dose: 100.0 mg/kg/injection; schedule: Q01DX009 (ip); vehicle: Klucel (hydroxypropylcellulose) (HPC); higher = longer survival
Toxic doses and inconclusive results are not listed.
PARAMETER: T/C

In the examples that follow, each entry is paired with its recorded T/C.
ENTRY_SMILES: Cc1cc(C)c(SSc2nnnn2C)c(C)c1
T/C: 90 % of control
//
ENTRY_SMILES: COc1cccc(-c2nsc(=O)o2)c1
T/C: 108 % of control
//
ENTRY_SMILES: COc1cc(NS(C)(=O)=O)ccc1Nc1c2ccccc2nc2cc(C(F)(F)F)c(N)cc12
T/C: 123 % of control
//
ENTRY_SMILES: CCOC(=O)c1ccc(NC(=S)P(=O)(c2ccccc2)c2ccccc2)cc1
T/C: 89 % of control
//
ENTRY_SMILES: CC(C)(C)CC(C)(C)c1ccc(OCCOc2ccc(C(=O)NCCNC(=O)c3ccc4ccccc4c3O)cc2N)cc1
T/C: 102 % of control
//
ENTRY_SMILES: O=C(NNC1=NCCN1Cc1ccccc1)c1cccc(Cl)c1
T/C: 100 % of control
//
ENTRY_SMILES: N#Cc1ccc(N)cc1C#N
T/C: 94 % of control
//
ENTRY_SMILES: CC(C)Oc1ccc(C(=O)NS(=O)(=O)c2ccc(N=CC3C(=O)N(c4ccccc4)N(c4ccccc4)C3=O)cc2)cc1
T/C: 92 % of control
//
ENTRY_SMILES: Cc1ccc2c(c1)sc1nnc(C)n12
T/C: 97 % of control
//
ENTRY_SMILES: CCn1c(=O)c2[nH]c(Cl)nc2n(C2CC2)c1=O
T/C: 101 % of control

Read the next record carefully.
Can you look up the measured T/C of `Cc1ccc(S(=O)(=O)Sc2nnnn2-c2ccccc2)cc1` for me? 103 % of control

---

System: P388 leukemia ip, CD2F1 mice, survival T/C
PROCEDURE_TEXT: NCI In Vivo Anticancer Drug Screen. Data for tumor model P388 Leukemia (intraperitoneal) in CD2F1 (CDF1) mice
PARTICULARS: endpoint: median survival time; dose: 120.0 mg/kg/injection; schedule: Q01DX005 (ip); vehicle: saline with Tween-80; higher = longer survival
Experimental: The antitumor activity of compounds was measured in mice bearing transplantable tumors. Survival or tumor size were measured and the results are expressed as the measurement made in the treated group (T) divided by the measurement made in the vehicle treated control group (C). The tumor model used in this assay is P388 Leukemia (intraperitoneal) in CD2F1 (CDF1) mice
Toxic doses and inconclusive results are not listed.
PARAMETER: T/C

MOLECULE: CCOC(=O)NC1CC2c3ccccc3C1c1ccccc12 (stereo unspecified)
SYSTEM: P388 leukemia ip, CD2F1 mice, survival T/C
PARAMETER: T/C
ASSAY_RESULT: 101 % of control

Look up T/C for this molecule: `CC(=O)Nc1ccc(S(=O)(=O)N/N=C/c2cccc([N+](=O)[O-])c2O)cc1` 104 % of control

Item CCOC(=O)CCCCCOC1CCCCO1 (stereo unspecified) has what recorded T/C? 97 % of control

---

Attribute: T/C
System: P388 leukemia ip, CD2F1 mice, survival T/C
PROCEDURE_TEXT: NCI In Vivo Anticancer Drug Screen. Data for tumor model P388 Leukemia (intraperitoneal) in CD2F1 (CDF1) mice
PARTICULARS: endpoint: median survival time; dose: 60.0 mg/kg/injection; schedule: Q01DX005 (ip); vehicle: saline; higher = longer survival
Toxic doses and inconclusive results are not listed.

# lookup: T/C of `COc1nc(N2CCNCC2)nc2c1CCCC2` 93 % of control

Returns the measured T/C for the input compound. Input: `O=C1C[C@@H]2OC3=C(C(=O)CCC3)[C@@H]2O1` 102 % of control

Could you share which T/C value was measured for CN(N=O)C1=NC2(CCCCC2)P(=O)(NNc2ncccn2)O1 (centres undefined) ? 101 % of control

Returns the measured T/C for the input compound. Input: `CSc1nc(C)c(C(=O)CCN2CCOCC2)s1` 117 % of control

---

T/C: recorded values
System: P388 leukemia ip, CD2F1 mice, survival T/C
PROCEDURE_TEXT: NCI In Vivo Anticancer Drug Screen. Data for tumor model P388 Leukemia (intraperitoneal) in CD2F1 (CDF1) mice
PARTICULARS: endpoint: median survival time; dose: 200.0 mg/kg/injection; schedule: Q01DX009 (ip); vehicle: other; higher = longer survival
Inconclusive results and toxic doses are left out.

COMPOUND: C(#CCOc1ccc2c(c1)OCO2)COc1ccc2c(c1)OCO2
SYSTEM: P388 leukemia ip, CD2F1 mice, survival T/C
ASSAY_RESULT: 105 % of control
--
COMPOUND: c1cncc(-c2n[nH]c3c2CCc2ccccc2-3)c1
SYSTEM: P388 leukemia ip, CD2F1 mice, survival T/C
ASSAY_RESULT: 101 % of control
--
COMPOUND: COc1ccc2ccccc2c1C(=O)CCCc1ccccc1
SYSTEM: P388 leukemia ip, CD2F1 mice, survival T/C
ASSAY_RESULT: 92 % of control
--
COMPOUND: NC(CSCSCc1ccccc1)C(=O)O (centres undefined)
SYSTEM: P388 leukemia ip, CD2F1 mice, survival T/C
ASSAY_RESULT: 106 % of control

Endpoint output: T/C of `COc1ccc(CC(=O)Nc2ccc(OC)c(OC)c2)cc1OC` . Value? 87 % of control

What value of T/C has been recorded for this entry: O=C(NC(CCS(=O)(=O)NO)C(=O)OCc1ccccc1)OCc1ccccc1 (centres undefined) 92 % of control

Would you kindly share the measured T/C for `Cc1nc(O)c([N+](=O)[O-])c(=O)[nH]1` ? 102 % of control

If you can, please state the reported T/C value of `CCCCCCCCCC(=O)CCCCC` . 115 % of control

Given the compound `Cn1nc2c(c1-c1ccncc1)CCc1ccccc1-2` , what is its reported T/C? 103 % of control

---

System: P388 leukemia ip, CD2F1 mice, survival T/C
PROCEDURE_TEXT: NCI In Vivo Anticancer Drug Screen. Data for tumor model P388 Leukemia (intraperitoneal) in CD2F1 (CDF1) mice
PARTICULARS: endpoint: median survival time; dose: 100.0 mg/kg/injection; schedule: Q01DX009 (ip); vehicle: saline; higher = longer survival
Toxic doses and inconclusive results are not listed. Peptide text beside a SMILES is read from it.
PARAMETER: T/C

Sample answers from the record:
COMPOUND: O=CN(O)CC(=O)O
T/C: 100 % of control

COMPOUND: COCCC(=NC(C)(C)C)Nc1ccccc1Cl
T/C: 113 % of control

COMPOUND: O=C(O)c1c(Cl)c(Cl)c(Cl)c(Cl)c1-c1c2cc(I)c(=O)c(I)c-2oc2c(I)c(O)c(I)cc12
T/C: 97 % of control

COMPOUND: C=CCS(=O)(=O)O
T/C: 100 % of control

COMPOUND: CN(C)CCC#N
T/C: 105 % of control

COMPOUND: O=C(CNC(=O)Nc1ccc(NC(=O)NCC(=O)Nc2ccc(C3=NCCN3)cc2)cc1)Nc1ccc(C2=NCCN2)cc1
T/C: 93 % of control

COMPOUND: CC(C)C(NC(=O)C1CCCN1)C(=O)O (stereo not drawn) (H-Pro-Val-OH; configuration not given here)
T/C: 99 % of control

COMPOUND: O=C(O)CN(CC(=O)O)Cc1cc(=O)[nH]c(=O)[nH]1
T/C: 95 % of control

COMPOUND: CCCC(=O)Nc1ncnc2c1ncn2C1OC2COP(=O)(O)OC2C1OC(=O)CCC (stereo not drawn)
T/C: 96 % of control

COMPOUND: Nc1nc2c(c(=O)[nH]1)N(C(=O)CCCC(=O)O)C(CN(C(=O)CCCC(=O)O)c1ccc(C(=O)NC(CCC(=O)O)C(=O)O)cc1)CN2 (stereo not drawn) (tested in a mixture with another compound)
T/C: 110 % of control

Could you share which T/C value was measured for `C#CCN(C)CCO` ? 111 % of control

Give its T/C value. Item: CCCC(O)C(C(=O)OCC)C(=O)OCC (stereo not drawn) 95 % of control

Fill blank: measured T/C of the compound `Nc1ccc(N=C2C=CC(=O)C=C2)c(N)c1` is ____. 112 % of control

Can you share its T/C? I mean this compound: `C=CCCC/C=C/CN1CCOCC1` 105 % of control

T/C lookup needed for `CCOC(=O)CCc1ccc2c(c1)OCO2` , thanks. 100 % of control

Query (compound): `O=C(O)C1=C/C(=C(/c2ccccc2)c2cc(C(=O)O)c(O)c3ccccc23)c2ccccc2C1=O` ; field requested: T/C 100 % of control

Would you kindly share the measured T/C for CC(N)S(=O)(=O)O (stereo not drawn) ? 98 % of control

Record request: T/C value, item `CCOc1ccc2c(=O)c(C(=O)O)c[nH]c2c1` 107 % of control

Any idea what its T/C is? The compound is `C1C[O][Ge]2([O]1)[O]CC[O]2` 101 % of control

Look at this compound and give its reported T/C. `COc1cc(CCC(=O)O)on1` 109 % of control

So what does the record say about T/C for O=C(O)C1[S][Sb]([CH](C(=O)O)[CH](C(=O)O)[Sb]2[S]C(C(=O)O)C(C(=O)O)[S]2)[S]C1C(=O)O (stereo not drawn) ? 98 % of control

Reported T/C, compound `Cc1cc(C)c(S(=O)(=O)n2ccnc2)c(C)c1` : ____ 103 % of control

Which T/C value belongs to `O=C1c2ccccc2C(=O)N1CCS(=O)(=O)O` ? 98 % of control
